These data points were gathered from patent US9394285B2.

system-tested: human AMPK (full-length γ1, β1 and α1 subunits) (Homo sapiens (Human), UniProt Q13131+Q9Y478)
Sequence (Q13131 whole entry): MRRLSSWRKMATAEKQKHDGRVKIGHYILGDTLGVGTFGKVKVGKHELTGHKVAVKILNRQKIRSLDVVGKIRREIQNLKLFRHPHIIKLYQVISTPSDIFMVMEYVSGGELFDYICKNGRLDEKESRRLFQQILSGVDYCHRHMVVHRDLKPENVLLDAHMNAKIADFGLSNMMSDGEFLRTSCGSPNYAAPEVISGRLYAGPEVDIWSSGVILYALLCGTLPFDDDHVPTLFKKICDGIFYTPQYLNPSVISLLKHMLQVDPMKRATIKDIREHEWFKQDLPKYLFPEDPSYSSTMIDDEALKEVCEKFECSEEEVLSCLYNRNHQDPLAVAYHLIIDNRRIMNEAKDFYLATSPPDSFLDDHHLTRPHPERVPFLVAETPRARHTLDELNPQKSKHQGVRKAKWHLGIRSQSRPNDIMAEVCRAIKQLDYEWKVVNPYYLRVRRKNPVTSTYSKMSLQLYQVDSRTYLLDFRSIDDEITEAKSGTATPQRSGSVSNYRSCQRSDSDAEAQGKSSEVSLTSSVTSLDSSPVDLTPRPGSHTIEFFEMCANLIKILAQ
Sequence (Q9Y478 whole entry): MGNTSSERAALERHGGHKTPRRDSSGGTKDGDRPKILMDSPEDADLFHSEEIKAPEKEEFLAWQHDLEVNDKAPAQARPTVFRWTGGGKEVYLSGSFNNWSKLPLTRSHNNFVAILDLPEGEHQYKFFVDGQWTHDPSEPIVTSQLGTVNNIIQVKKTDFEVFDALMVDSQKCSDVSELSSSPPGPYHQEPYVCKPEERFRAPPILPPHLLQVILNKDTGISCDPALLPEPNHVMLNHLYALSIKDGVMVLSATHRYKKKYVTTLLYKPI
Sequence (P54619 whole entry partner): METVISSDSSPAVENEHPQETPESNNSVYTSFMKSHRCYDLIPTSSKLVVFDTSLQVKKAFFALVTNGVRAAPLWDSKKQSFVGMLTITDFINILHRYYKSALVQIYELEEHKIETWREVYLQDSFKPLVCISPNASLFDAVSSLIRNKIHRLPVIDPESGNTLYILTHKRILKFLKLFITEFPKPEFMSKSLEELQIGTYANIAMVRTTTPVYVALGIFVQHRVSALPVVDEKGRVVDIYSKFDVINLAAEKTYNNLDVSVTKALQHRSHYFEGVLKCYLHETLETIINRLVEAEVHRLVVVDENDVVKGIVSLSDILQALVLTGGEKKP
assay-protocol: AMPK in vitro biochemical assay (33P-based, SAMS peptide, PP2A dephosphorylation)
condition-summary: counts as % of positive control wells (enzyme, allosteric activator or AMP, PP2A and substrate); read-out: Maximum
Hi there, I'd appreciate the recorded Emax for every entry that follows.
Just the number in %, nothing appended.

Per the records, this compound ( O=C(O)c1c[nH]c2cc(F)c(-c3ccc(OCCO)cc3)c(F)c12 ) has Emax equal to 91

Please fill in: Emax reported for CC(C)(CO)c1ccc(-c2cc3c(C(=O)O)n[nH]c3cc2Cl)cc1 = 95

Lab note: measured Emax of O=C(O)c1c[nH]c2cc(Cl)c(-c3ccc(CO)cc3)cc12 was 88

The compound listed as COc1nc(-c2cc3c(C(=O)O)c[nH]c3cc2Cl)ccc1N1CCC(O)C1 (stereo not drawn) shows Emax equal to 88.9

According to the records, this compound O=C(O)c1c[nH]c2cc(Cl)c(-c3ccc(OCCO)cc3F)cc12 displays Emax of 99

Please fill in: Emax reported for O=C(O)CCOc1ccc(-c2cc3c(C(=O)O)c[nH]c3cc2Cl)cc1 = 120

Just so you know, measured Emax for O=C(O)c1c[nH]c2cc(Cl)c(-c3ccc(CCO)cc3)cc12 came out at 75

O=C(O)c1c[nH]c2cc(Cl)c(-c3ccc(OCc4cccnc4)cc3)cc12 has a reported Emax of 92

Looking up COC(=O)N1CCC(c2ccc(-c3cc4c(C(=O)O)c[nH]c4cc3Cl)cc2)C1 (racemic) [Example 14] , I see its Emax listed as 100

Item: O=C(O)c1c[nH]c2cc(Cl)c(-c3ccc(OC[C@@H]4CCCN4)cc3)cc12 | Emax: 96

Sample COc1cc(-c2cc3c(C(=O)O)n[nH]c3cc2Cl)ccc1C1(O)CCC1 ; Emax observed: 95

Record O=C(O)c1c[nH]c2cc(F)c(-c3ccc(C4CCOCC4)cc3)c(F)c12 . Reported Emax: 107

// recorded Emax for O=C(O)c1c[nH]c2cc(Cl)c(-c3ccc(C4CCOCC4)cc3)cc12 : 100

// recorded Emax for O=C(O)c1n[nH]c2cc(Cl)c(-c3ccc(C4(O)CCC4)cc3)cc12 : 80

// sample O=C(O)c1c[nH]c2cc(Cl)c(-c3ccccc3)cc12 , its Emax was 82

Per the record, O=C(O)c1c[nH]c2cc(Cl)c(-c3ccc(OCc4ncccn4)cc3)cc12 has Emax of 118

The recorded Emax for entry O=C(O)c1c[nH]c2cc(Cl)c(-c3ccc(OCCC4COC4)cc3)cc12 equals 98.9

So for O=C(O)c1n[nH]c2cc(Cl)c(-c3ccc(C4CCCCC4)cc3)cc12 , the logged Emax turned out to be 90

O=C(O)c1c[nH]c2cc(Cl)c(-c3ccc(OCCN4CCOCC4)cc3)cc12 has a reported Emax of 96

Sample COc1ccc(-c2cc3c(C(=O)NS(=O)(=O)c4ccccc4)n[nH]c3cc2Cl)cc1 ; Emax observed: 125

What the record says about O=C(O)c1c[nH]c2cc(F)c(-c3ccc(OCCCO)cc3)c(F)c12 : Emax is 98

In plain terms, CN1CCN(CCCOc2ccc(-c3cc4c(C(=O)O)c[nH]c4cc3Cl)cc2)CC1 has a documented Emax of 120

response.value for O=C(O)c1n[nH]c2cc(Cl)c(-c3ccc4c(c3)OCCO4)cc12 (field: Emax) = 102

Per the record, CC(C)(CO)c1ccc(-c2cc3c(C(=O)O)c[nH]c3cc2Cl)cc1O has Emax of 119
